Measured values drawn from paper PMC7819943 for this set.

Target: OsWOX13 (Oryza sativa, UniProt Q5QMM3 1-267)
Sequence: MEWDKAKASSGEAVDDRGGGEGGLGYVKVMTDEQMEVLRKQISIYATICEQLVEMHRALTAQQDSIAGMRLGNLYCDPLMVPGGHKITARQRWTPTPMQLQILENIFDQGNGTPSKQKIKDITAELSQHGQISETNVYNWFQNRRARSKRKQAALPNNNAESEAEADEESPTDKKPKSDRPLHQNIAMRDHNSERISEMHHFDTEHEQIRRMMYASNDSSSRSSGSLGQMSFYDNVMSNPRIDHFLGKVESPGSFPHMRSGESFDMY
Experiment: protein-binding microarray (RPBM); PBS, 2% BSA, 51.3 ng/ul salmon testes DNA, 50 uM zinc acetate, 200 nM TF, 25 C, 1 h; high values mean tight binding
Conditions: protein: recombinant; tags: N-terminal polyhistidine and DsRed monomer fusion (pET32a); label: CyDye5-dUTP incorporated in the synthesized complementary strand; 3' TTTTT single-stranded linker to array surface; dsDNA, one strand shown
Whole data set: some 35,000 sequences, median “fluorescence intensity (a.u.)” near 10,000, cut for the highest 2% near 52,000. What follows is part of a selection rich in the highest values, with near analogues and random picks from the rest.
measured parameter: binding signal

What value of binding signal has been recorded for this entry: "CCAGTGATCAATTTAGCTCCATTTCACTAGTGCAATCTGTCGGAGTCACCTAGTGCAG"
9160 fluorescence intensity (a.u.)

binding signal lookup needed for "TGACCTAATTAATTATTTAACTAATAATAATTAGTGATTACGGAGTCACCTAGTGCAG" , thanks.
44500 fluorescence intensity (a.u.)

Which binding signal value belongs to "ACTTTAATTAGTCGTGATCAATCAATCAATCTGAATCTGTCGGAGTCACCTAGTGCAG" ?
65100 fluorescence intensity (a.u.)

Report binding signal for "TTAATTGCTATGTTTTGACCAGTCAACGCATAGGTCGTTTCGGAGTCACCTAGTGCAG" please.
15500 fluorescence intensity (a.u.)

Bench note: what binding signal did "TAAACATCTGATTAGCTAAAAGTGTTTAATTAGATTTCCACGGAGTCACCTAGTGCAG" show?
21800 fluorescence intensity (a.u.)
